Origin of values: the supplement of paper PMC10126150

test system: ATP; assay: switch fluorescence ratio, 500 uM ATP over buffer (Cy3 cluster intensity, sum of 5 cycles each) (fold (ratio)); higher = stronger signal-on switching upon ATP binding; sequences stand for … in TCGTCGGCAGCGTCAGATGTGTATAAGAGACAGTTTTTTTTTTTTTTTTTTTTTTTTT…TC; conditions: aptamer strand: ATP DNA aptamer (quencher-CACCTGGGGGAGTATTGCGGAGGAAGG + anchor), 100 nM annealed; ATP concentration: 500 uM;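 note: ATP exposure 15 min at 22 °C before imaging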
measured_property: switch fluorescence ratio
Numbers only.

// each listed sequence needs a value for switch fluorescence ratio
1. CCGGGGGGAA
2. GATGTTCCGT
3. TTTGCCTGCT
4. GGGGCTTGAC
5. GGTATGGGGG
6. TTTTCAGAAG
7. TGTATGGGAG
8. TATGTGAGTT

Solution:
1. 1.03
2. 0.996
3. 1.01
4. 1.01
5. 1.02
6. 0.997
7. 0.968
8. 1

// each listed sequence needs a value for switch fluorescence ratio
1. GTGACCCGGA
2. GGTGTAGCTA
3. CGTATAGCGG
4. ACGGCATCAT
5. GATAACATGT

Solution:
1. 0.971
2. 0.981
3. 1.02
4. 1.08
5. 1.02

// each listed sequence needs a value for switch fluorescence ratio
1. ATAGAATGTG
2. GGGGGACTTG

Solution:
1: 1.01; 2: 0.997

// each listed sequence needs a value for switch fluorescence ratio
1. TAGGTCTTAA
2. GGGTATTGTT
3. TGGAGCTCTG

Solution:
1: 0.995; 2: 0.995; 3: 0.981

// each listed sequence needs a value for switch fluorescence ratio
1. ATAGTATGGT
2. GCGCAGCGGC

Solution:
1: 0.998; 2: 1.09

====

test system: ATP; experiment: switch fluorescence ratio, 500 uM ATP over buffer (Cy3 cluster intensity, sum of 5 cycles each) (fold (ratio)); higher = stronger signal-on switching upon ATP binding; sequences stand for … in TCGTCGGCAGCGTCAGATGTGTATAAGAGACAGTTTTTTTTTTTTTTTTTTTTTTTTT…TC; details: aptamer strand: ATP DNA aptamer (quencher-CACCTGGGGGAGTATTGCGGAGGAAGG + anchor), 100 nM annealed; ATP concentration: 500 uM;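 note: ATP exposure 15 min at 22 °C before imaging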
measured_property: switch fluorescence ratio
Give bare numbers.

- sequence_string: "TGCAAGGCGC"
  measured_property: "switch fluorescence ratio"
  measured_value: 1.23
- sequence_string: "AGGTCGCGGT"
  measured_property: "switch fluorescence ratio"
  measured_value: 0.994
- sequence_string: "CGGGAGTAGG"
  measured_property: "switch fluorescence ratio"
  measured_value: 1.04

// each listed sequence needs a value for switch fluorescence ratio
1. ATGGATAGTC
2. GTTGGCGGGC
3. TAGGGCCAGC
4. CAGGAGTGTA

Solution:
[0.986, 0.997, 1.04, 1.03]

// each listed sequence needs a value for switch fluorescence ratio
1. TATTTCAGTC
2. TAAAGGTTAC
3. CCGGTGGGGT

Solution:
1.01
1.03
1.01

====

Provide the reported switch fluorescence ratio of each item.
system: ATP; assay: switch fluorescence ratio, 500 uM ATP over buffer (Cy3 cluster intensity, sum of 5 cycles each) (fold (ratio)); higher = stronger signal-on switching upon ATP binding; sequences stand for … in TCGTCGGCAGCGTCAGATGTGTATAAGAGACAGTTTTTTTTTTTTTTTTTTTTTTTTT…TC; conditions: aptamer strand: ATP DNA aptamer (quencher-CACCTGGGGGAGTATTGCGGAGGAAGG + anchor), 100 nM annealed; ATP concentration: 500 uM;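 note: ATP exposure 15 min at 22 °C before imaging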
Numbers only.

// each listed sequence needs a value for switch fluorescence ratio
1. TATTTCGAAT
2. TTTGAGACGG
3. TGGAATTTTT
4. GTGTAATTGG

Solution:
1: 1.11; 2: 0.99; 3: 0.987; 4: 1.02

// each listed sequence needs a value for switch fluorescence ratio
1. CCAATAGAGT
2. GGGGAGTTTC
3. ATGTAGTAGT

Solution:
0.997
1.07
1

// each listed sequence needs a value for switch fluorescence ratio
1. TTTGTTTAAA
2. CTCAGCAGTC
3. ACAGCATGGA
4. TAAGCAAATG
5. GAGAGGTGGG

Solution:
[0.974, 1.2, 1.04, 1.04, 1.01]

====

Provide the reported switch fluorescence ratio of each item.
tested on: ATP; test: switch fluorescence ratio, 500 uM ATP over buffer (Cy3 cluster intensity, sum of 5 cycles each) (fold (ratio)); higher = stronger signal-on switching upon ATP binding; sequences stand for … in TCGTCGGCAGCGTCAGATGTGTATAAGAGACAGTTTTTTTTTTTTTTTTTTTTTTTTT…TC; conditions: aptamer strand: ATP DNA aptamer (quencher-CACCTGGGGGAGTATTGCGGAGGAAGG + anchor), 100 nM annealed; ATP concentration: 500 uM;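 note: ATP exposure 15 min at 22 °C before imaging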
Numbers only.

- sequence_string: "TAGGAGAAGT"
  switch fluorescence ratio: 0.991
- sequence_string: "CGTTAAGAAA"
  switch fluorescence ratio: 0.994
- sequence_string: "AAGCGTGAGG"
  switch fluorescence ratio: 1.04

// each listed sequence needs a value for switch fluorescence ratio
1. AGCATGGTTG
2. GCGTAATGGG

Solution:
1: 1.01; 2: 0.975

// each listed sequence needs a value for switch fluorescence ratio
1. GCTAATTTGC
2. TGGTATGTAG
3. AAAGGGAGGA
4. TTTTTAGTCC
5. CACTGGGGAT

Solution:
[0.99, 1.02, 1.02, 1, 0.981]

// each listed sequence needs a value for switch fluorescence ratio
1. TGGGGTTGAT
2. CGGGGGTGTC
3. ATCGTGTG
4. TATCTTATTT
5. TTTATTTGCC
6. TGAAATTGTG
7. GAAATAAGTG
8. GGTGCTAAGG

Solution:
0.968
0.998
1.01
0.987
1.05
1.01
1.04
1.02

// each listed sequence needs a value for switch fluorescence ratio
1. GTCATTTTTG
2. TAGTAGGGTG
3. GCATTGGGGG

Solution:
1.02
1.03
0.995

// each listed sequence needs a value for switch fluorescence ratio
1. TCGAGTCATT
2. AAAACACGCT
3. TTGGTTTCGT
4. AAGTTTTTCC
5. ATTAAAACGG
6. CTATGGGGGA
7. AGGGATAATT

Solution:
[0.991, 1.18, 1.02, 1.04, 1.07, 1.04, 0.975]

// each listed sequence needs a value for switch fluorescence ratio
1. AACCTCGTCT
2. TTTTTCCGAG

Solution:
[1.07, 1.08]

// each listed sequence needs a value for switch fluorescence ratio
1. GGGAAGTCGG
2. TCATATTATG
3. ACGTTGTGAG
4. ACTTCGAATA
5. TTTTCCTAGT
6. ATGAAAGCAC

Solution:
0.982
1.02
0.969
1.36
1.12
1.09

// each listed sequence needs a value for switch fluorescence ratio
1. TGTGCGCGCT
2. TCGCAATGTT
3. GACTAGGTCG

Solution:
1: 0.995; 2: 3.58; 3: 1.16

====

test system: ATP; test: switch fluorescence ratio, 500 uM ATP over buffer (Cy3 cluster intensity, sum of 5 cycles each) (fold (ratio)); higher = stronger signal-on switching upon ATP binding; sequences stand for … in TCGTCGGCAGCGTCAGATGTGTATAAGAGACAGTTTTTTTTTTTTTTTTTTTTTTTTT…TC; conditions: aptamer strand: ATP DNA aptamer (quencher-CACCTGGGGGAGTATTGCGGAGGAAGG + anchor), 100 nM annealed; ATP concentration: 500 uM;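 note: ATP exposure 15 min at 22 °C before imaging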
measured_property: switch fluorescence ratio
Give bare numbers.

Consider the following illustrative entries.
- sequence_string: "TGCGTTAT"
  switch fluorescence ratio: 1.07
- sequence_string: "GAGTACGAGT"
  switch fluorescence ratio: 1.01
- sequence_string: "TAAGGGGGAT"
  switch fluorescence ratio: 1.02

// each listed sequence needs a value for switch fluorescence ratio
1. TTTTTCACCG
2. GGTATTTACA
3. TGTCGGAGGG

Solution:
[1.07, 1.03, 0.973]

// each listed sequence needs a value for switch fluorescence ratio
1. AACAGGACTG
2. GGGACGCGCA
3. CAAATGTTTG
4. GCCGCATTTG
5. GCCGTAGGGC
6. AGTTGGAGTT

Solution:
[1, 0.984, 0.998, 1.15, 0.985, 0.978]

// each listed sequence needs a value for switch fluorescence ratio
1. ATTATGTTTG
2. GACTTGGGCG
3. GGTACTGGGA

Solution:
[1, 0.957, 0.997]

// each listed sequence needs a value for switch fluorescence ratio
1. CGTTGGGGGC
2. TTTACCCCAA

Solution:
1: 0.998; 2: 1.15

====

test system: ATP; test: switch fluorescence ratio, 500 uM ATP over buffer (Cy3 cluster intensity, sum of 5 cycles each) (fold (ratio)); higher = stronger signal-on switching upon ATP binding; sequences stand for … in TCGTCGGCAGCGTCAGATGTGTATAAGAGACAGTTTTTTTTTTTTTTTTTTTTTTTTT…TC; details: aptamer strand: ATP DNA aptamer (quencher-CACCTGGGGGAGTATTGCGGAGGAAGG + anchor), 100 nM annealed; ATP concentration: 500 uM;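 note: ATP exposure 15 min at 22 °C before imaging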
Decision: switch fluorescence ratio >= 1 yields 1.0, all other cases yield 0.0.

Worked examples, 2 sequences total:
- sequence_string: "AAGGGCTTCC"
  experimental_target: "ATP"
  class_name: 1.0
- sequence_string: "ACGACTTAGG"
  experimental_target: "ATP"
  class_name: 1.0

Exercise: Evaluate GGGTGGCCGT : switch fluorescence ratio at minimum 1?
Solution: 0.0

Exercise: Evaluate CCGAATTGTA : switch fluorescence ratio at minimum 1?
Solution: 1.0
